- SYSTEM UNDER TEST: α-glucosidase
- EXPERIMENTAL DETAILS: α-glucosidase inhibition assay (PNPG substrate, absorbance at 405 nm)
- REPORTED CONDITIONS: substrate PNPG 2.5 mM, enzyme 1.0 U/mL, PPBS pH 6.86, 37 °C, triplicate; read-out: α-Glucosidase inhibitory activity IC50
Threshold 60 µM: IC50 strictly smaller gives 1, otherwise -1.

MOLECULE	CLASS
C=C(C)/C=C/C[C@@H](C)[C@H]1CC[C@@]2(C)[C@@H]3C=C[C@@]45O[C@@H](OC)[C@]3(CC[C@]12C)[C@@H]4CC[C@H](O[C@@H]1O[C@H](CO)[C@@H](O)[C@H](O)[C@H]1O)C5(C)C [Compound 7, charantoside I]	1
C=C(C)/C=C/C[C@@H](C)[C@H]1CC[C@@]2(C)[C@@H]3C=C[C@@]45OC[C@]3(CC[C@]12C)[C@@H]4CC[C@H](O[C@@H]1O[C@H](CO)[C@@H](O)[C@H](O)[C@H]1O)C5(C)C [Compound 8, charantoside III]	1
CO[C@H]1C=C2C(CC[C@H](O[C@@H]3O[C@H](CO)[C@@H](O)[C@@H](O)[C@H]3O)C2(C)C)[C@]2(C=O)CC[C@]3(C)[C@@H]([C@H](C)C/C=C/C(C)(C)OC)CC[C@@]3(C)[C@H]12 (stereo partly shown) [Compound 10]	-1
COC(C=C(C)C)CC(C)C1CCC2(C)C3C=CC45OC(OC)C3(CCC12C)C4CCC(OC1OC(CO)C(O)C(O)C1O)C5(C)C (stereo not shown) [Compound 2]	-1
C=C(C)/C=C/C[C@@H](C)[C@H]1CC[C@@]2(C)[C@@H]3C=C[C@@]45O[C@@H](OC)[C@]3(CC[C@]12C)C4CC[C@H](O[C@@H]1O[C@H](CO)[C@@H](O)[C@@H](O)[C@H]1O)C5(C)C (stereo partly shown) [Compound 6]	-1
CO[C@H]1O[C@]23C=C[C@@H]4[C@@]1(CC[C@]1(C)[C@@H]([C@H](C)C[C@@H](C=C(C)C)OC)CC[C@@]41C)C2CC[C@H](O[C@@H]1O[C@H](CO)[C@@H](O)[C@@H](O)[C@H]1O)C3(C)C (stereo partly shown) [Compound 3]	-1
COC(C)(C)/C=C/C[C@@H](C)[C@H]1CC[C@@]2(C)[C@@H]3[C@@H](O[C@@H]4O[C@H](CO)[C@@H](O)[C@H](O)[C@H]4O)C=C4C(CC[C@H](O)C4(C)C)[C@]3(C=O)CC[C@]12C (stereo partly shown) [Compound 9, momordicoside K]	1
COC(C=C(C)C)CC(C)C1CCC2(C)C3C=CC45OC(OC)C3(CCC12C)C4CCC(OC1OC(CO)C(O)C(O)C1O)C5(C)C (stereo not shown) [Compound 1]	-1
CC(C)=CC=CC(C)C1CCC2(C)C3C=CC45OCC3(CCC12C)C4CCC(OC1OC(CO)C(O)C(O)C1O)C5(C)C (stereo not shown) [Compound 4]	-1

Entry source: paper PMC7253571
